These measurements were taken from ChEMBL document CHEMBL1201862.

# Tested on: HT-29
# test summary: NCI tumour cell line growth inhibition, 48 h
Activity calls are given as the source filed them. No stated cut-off is given here; in the data, active = GI50 up to about 1.1 µM and inactive = higher.
readout label: GI50

For the compound Oc1ccc(-c2nc3ccc(Cl)cc3s2)cc1 , what GI50 is on record?
18.4 µM (inactive)

For the compound C=Cc1ccc(C)[n+](C[Si](C)(C)O[Si](C)(C)C)c1 , what GI50 is on record?
> 100 µM (inactive)

For the compound Cc1cc(C)c2cc(N)c(Cl)nc2n1 , what GI50 is on record?
63.5 µM (inactive)

For the compound COC(=O)/C=C/c1cc2c(cc1-c1c(C(=O)O)cc(OC)c(OC)c1OC)OCO2 , what GI50 is on record?
> 10 µM (inactive)

For the compound CCOC(=O)CC/C(C)=N\n1c(Cc2ccc(Cl)cc2)n[nH]c1=O , what GI50 is on record?
> 100 µM (inactive)

For the compound CC(=O)c1c2c(cc3c1CC1(Cc4ccccc4C1=O)C3)CCC2 (stereo not drawn) , what GI50 is on record?
20.5 µM (inactive)

For the compound S=C1CC(c2ccccc2)Sc2ccccc2N1 (stereo not drawn) , what GI50 is on record?
> 100 µM (inactive)

For the compound COC(=O)c1nc(N)nc(O)c1CCCCCc1c(O)nc(N)nc1C(=O)OC , what GI50 is on record?
> 50 µM (inactive)

---

Assign GI50 to each entry below.
# Test system: TK-10
# test summary: NCI tumour cell line growth inhibition, 48 h
Activity calls are given as the source filed them. Cut-off read from the data, not from the text of the source: active = GI50 up to about 1.1 µM and inactive = higher.

For the molecule COc1cc(C2SCC(=O)N2c2ccc(NC(C)=O)cc2)cc(OC)c1OC (stereo not given) , what GI50 is on record?
> 100 µM (inactive)

For the molecule Oc1nc2ccccc2c(O)c1Cc1ccccc1 , what GI50 is on record?
> 100 µM (inactive)

For the molecule CCOC(=O)C1(CC)CCCCC(=O)N1 (stereo not given) , what GI50 is on record?
> 100 µM (inactive)

For the molecule Cc1c2ccccc2c(=O)n2c(-c3ccccn3)cccc12 , what GI50 is on record?
> 100 µM (inactive)

For the molecule O=C(N/N=C/C=C/c1ccccc1)c1ccccc1Nc1ccccc1C(=O)N/N=C/C=C/c1ccccc1 , what GI50 is on record?
> 100 µM (inactive)

For the molecule O=C1C[C@@H]2[C@@H](CCC23CCCC3)N1 , what GI50 is on record?
> 100 µM (inactive)

For the molecule CCc1ccccc1NC(=O)/C=C/c1ccccc1 , what GI50 is on record?
> 100 µM (inactive)

For the molecule O=C1CC(=O)NC(NN2C(=O)/C(=C/c3ccccc3)N=C2c2ccccc2)=N1 , what GI50 is on record?
> 100 µM (inactive)

For the molecule CCC1=CC2Cc3nc4cc(Cl)ccc4c(N)c3C(C1)C2 (stereo not given) , what GI50 is on record?
4.38 µM (inactive)

For the molecule CC1(CCC(=O)OC2CCCCC2)OCCO1 , what GI50 is on record?
> 100 µM (inactive)

For the molecule C[C@H](CO)C1=CC(C#C[Si](C)(C)C)N(C(=O)Oc2ccccc2)c2ccccc21 (stereo not given in full) , what GI50 is on record?
17 µM (inactive)

For the molecule COC(=O)C1CC(C=O)=C(SC)N1 (stereo not given) , what GI50 is on record?
> 50 µM (inactive)

For the molecule C#CCNC(CSSCC(N)C(=O)O)C(=O)O (stereo not given) , what GI50 is on record?
> 100 µM (inactive)

For the molecule O=[N+]([O-])C(=C(N1CCCCC1)N1CCCCC1)/C(Cl)=C(\Cl)Br , what GI50 is on record?
25.5 µM (inactive)

For the molecule COC1CC(OC2C(C)OC(OC3C(C)OC(OC4C(C)OC(O[C@H]5CC[C@@]6(C)C(=CC[C@]7(O)[C@@H]6C[C@@H](OC(=O)/C=C/c6ccccc6)[C@@]6(C)[C@]7(O)CC[C@@]6(O)C(C)=O)C5)CC4OC)CC3OC)CC2OC)OC(C)C1O (stereo not given in full) , what GI50 is on record?
> 12.5 µM (inactive)

---

Assign GI50 to each entry below.
# Test system: SF-268
# test summary: NCI tumour cell line growth inhibition, 48 h
Activity calls are given as the source filed them. Cut-off read from the data, not from the text of the source: active = GI50 up to about 1.1 µM and inactive = higher.

For the compound Nc1ncc(Br)c(NCC2(CO)CCC2)n1 , what GI50 is on record?
> 100 µM (inactive)

For the compound CCOP(=O)(C[S+](C)[O-])O[C@@H]1C[C@H](C)CC[C@H]1C(C)C (some centres undefined) , what GI50 is on record?
6.44 µM (inactive)

For the compound CCOC(=O)c1ccc(Nc2cnc3ccc(C(F)(F)F)cc3n2)cc1 , what GI50 is on record?
12.6 µM (inactive)

For the compound Cc1c(C)n(COCCO)c2ncnc(N)c12 , what GI50 is on record?
> 100 µM (inactive)

For the compound CC(N1CCOCC1)C(O)(c1ccccc1)c1ccccn1 (centres undefined) , what GI50 is on record?
> 100 µM (inactive)

For the compound Cc1nc2nn(C)cc2c(=O)n1/N=C/c1ccccc1 , what GI50 is on record?
> 100 µM (inactive)

For the compound O=C(/C=C/c1ccccc1)c1cc(Br)ccc1O , what GI50 is on record?
16.9 µM (inactive)

For the compound CC(C)CCCC(=O)CCCCCCC(=O)CCN(O)C(=O)C(N)CO (centres undefined) , what GI50 is on record?
26.2 µM (inactive)

For the compound COc1ccc2ccnc(Cc3ccc(OCc4ccccc4)c(OC)c3)c2c1 , what GI50 is on record?
22.1 µM (inactive)

---

# System: NCI-H23
# test summary: NCI tumour cell line growth inhibition, 48 h
Activity calls are given as the source filed them. Cut-off read from the data, not from the text of the source: active = GI50 up to about 1.1 µM and inactive = higher.
Assign GI50 to each entry below.

For the molecule O=C(C(=O)n1ccc2ccccc21)n1ccc2ccccc21 , what GI50 is on record?
75.3 µM (inactive)

For the molecule CCC1=CC2Cc3nc4cc(Cl)ccc4c(N)c3C(C1)C2 (stereo not given) , what GI50 is on record?
5.52 µM (inactive)

For the molecule C=CC1C2=C(C(=O)NCC2)C2OC(O)C3=C(CCNC3=O)C2C1C (stereo not given) , what GI50 is on record?
> 100 µM (inactive)

For the molecule COc1c(C(CC(C)C)OC(C)=O)ccc2c1C(=O)OCc1cc(C)cc(O)c1O2 (stereo not given) , what GI50 is on record?
10.3 µM (inactive)

For the molecule CC(=O)O[C@H]1CC[C@H]2[C@@H]3CCc4cc(O)c(I)cc4[C@H]3CC[C@]12C , what GI50 is on record?
12.5 µM (inactive)

For the molecule CCOC(=O)c1ccc(Nc2cnc3ccc(C(F)(F)F)cc3n2)cc1 , what GI50 is on record?
15 µM (inactive)

For the molecule CC(C)Oc1ccc(CNC2=NCCO2)c2ccccc12 , what GI50 is on record?
14.6 µM (inactive)

For the molecule NC(=S)Nc1ccc2c(c1)oc1ccccc12 , what GI50 is on record?
> 83.6 µM (inactive)

For the molecule CN1CSC(=S)N(c2c3ccccc3nc3ccc(Br)cc23)C1 , what GI50 is on record?
10 µM (inactive)

For the molecule O=C1CC(=O)NC(NN2C(=O)/C(=C/c3ccccc3)N=C2c2ccccc2)=N1 , what GI50 is on record?
39 µM (inactive)

---

# Tested on: U-251
# test summary: NCI tumour cell line growth inhibition, 48 h
Calls of active or inactive are those of the source. No stated cut-off is given here; in the data, active = GI50 up to about 1.1 µM and inactive = higher.
readout label: GI50

For the molecule S=c1[nH]c(=S)c2cc(Sc3ccc4[nH]c(=S)[nH]c(=S)c4c3)ccc2[nH]1 , what GI50 is on record?
33 µM (inactive)

For the molecule O=NN1C(c2ccccc2)CC(=NO)CC1c1ccccc1 (stereo not drawn) , what GI50 is on record?
> 100 µM (inactive)

For the molecule CCOC(=O)/C(=C\c1ccc(N(C)C)cc1)S(=O)(=O)C(F)(F)C(F)(F)C(F)(F)C(F)(F)F , what GI50 is on record?
> 100 µM (inactive)

---

# Test system: SNB-75
# test summary: NCI tumour cell line growth inhibition, 48 h
The source made the active and inactive calls. No stated cut-off is given here; in the data, active = GI50 up to about 1.1 µM and inactive = higher.
Reply using exactly one outcome from active, inactive

# outcome recorded in this test, key = COc1cc2c(cc1OCCN1CCN(CCOc3cc4c(cc3OC)C(=O)N3CCC[C@H]3C=N4)CC1)N=C[C@@H]1CCCN1C2=O
inactive

# outcome recorded in this test, key = O=[N+]([O-])c1cccc(C(O)/C(=N/O)c2nc3ccc(Cl)cc3nc2O)c1 (stereo unspecified)
inactive

# outcome recorded in this test, key = CC(C)(C)OC(=O)N1CCC[C@H]1CSC[C@@H]1CCCN1C(=O)OC(C)(C)C
inactive

# outcome recorded in this test, key = C/C=C/C(O)P1(=O)N(Cc2ccccc2)[C@@H]2CCCC[C@H]2N1Cc1ccccc1 (stereo partly specified)
inactive

# outcome recorded in this test, key = CC(=O)O[C@H]1CCn2c3c(c(C)c21)C(=O)C(N1CC1)=C(C)C3=O
inactive

# outcome recorded in this test, key = C[Si](C)(C)CNC(=O)OCc1ccccc1
inactive

# outcome recorded in this test, key = Clc1cccc(Cl)c1C1ON=C(c2ccccc2)N1C12CC3CC(CC(C3)C1)C2 (stereo unspecified)
active

# outcome recorded in this test, key = C[C@]12CCC3[C@@H](CC[C@@H]4c5nonc5CC[C@]34C)C1CCC2=O (stereo partly specified)
inactive

# outcome recorded in this test, key = Cc1ccc(-c2cs/c(=N\c3c(C)n(C)n(-c4ccccc4)c3=O)n2CCO)cc1
inactive

# outcome recorded in this test, key = Cn1c(=S)[nH]c2sc3c(c2c1=O)CCSC3
inactive

# outcome recorded in this test, key = Cc1[nH]nc(C(=O)N/N=C/c2cccs2)c1/N=N\N(C)C
inactive

# outcome recorded in this test, key = C(=C\c1ccccc1)/C=N/c1ccc2c(c1)Cc1ccccc1-2
inactive

# outcome recorded in this test, key = COc1cc(C(CC(OC)OC)=C(C#N)C#N)cc(OC)c1OC
inactive

# outcome recorded in this test, key = CCOC(=O)c1ccc(Nc2cnc3ccc(C(F)(F)F)cc3n2)cc1
inactive

# outcome recorded in this test, key = O=c1nc(Oc2c(F)c(F)c(F)c(F)c2F)ccn1C1OC(CO)C(O)C1O (stereo unspecified)
inactive

# outcome recorded in this test, key = COc1ccc(C(=O)O[C@H]2[C@@H]3C=CO[C@@H](OC4OC(CO)C(O)C(O)C4O)[C@@H]3[C@@]3(CO)O[C@@H]23)cc1O (stereo partly specified)
inactive

# outcome recorded in this test, key = O=C(NC(=S)Nc1ccc2c(c1)Sc1ccccc1O2)c1ccccc1
inactive

# outcome recorded in this test, key = Cc1cc(C)nc(NS(=O)(=O)c2ccc(NC(=O)c3ccc4nc5ccccc5c(Nc5ccc(S(=O)(=O)N=C(N)N)cc5)c4c3)cc2)n1
inactive

# outcome recorded in this test, key = CCOC(=O)NC(NCC(O)c1ccccc1)(C(F)(F)F)C(F)(F)F (stereo unspecified)
inactive

# outcome recorded in this test, key = CCCCn1cnc2c(c(CC#N)nn2-c2ccccc2)c1=N
inactive

# outcome recorded in this test, key = NS(=O)(=O)c1nnc(NC(=O)N(c2ccccc2)c2ccccc2)s1
inactive

# outcome recorded in this test, key = COC(=O)C1=C(C(=O)OC)C2OC1c1cc3ccccc3cc12
inactive

# outcome recorded in this test, key = O=Cc1c(O)ccc2ccc(O)c(-c3c(O)ccc4ccc(O)cc34)c12
inactive

# outcome recorded in this test, key = O=NN(CCCl)C(=O)N[C@H]1CC[C@@H](CC(=O)O)CC1
inactive

# outcome recorded in this test, key = O=[N+]([O-])/C(C(Cl)=C(Cl)Cl)=C(/Cl)Sc1ccccc1
inactive

# outcome recorded in this test, key = COC[C@@H]1Cc2cc(OC)c3c(c2[C@H](c2ccc(OC)c(OC)c2)[C@H]1COC)OCO3
inactive
